# System: antibodies in sera from SARS patients (sera 1a, 1b, 2, 6, 37, 62, London, SARS-yellow, SARS-green)
# Type: binding, human
# Set-up: unit not given here
# Binding of serum 1a to looped/cyclic peptides of protein N of SARS-CoV Urbani listing for each entry below

Worked cases, answers included:
- PSASAFFGMSRIGME: 0.4
- QFAPSASAFFGMSRI: 0.4
- GQTVTKKSAAEASKK: 0.2
- SAAEASKKPRQKRTA: 0.2
- YKTFPPTEPKKDKKK: 0.2

Task: I would be grateful if you could share the reported Binding of serum 1a to looped/cyclic peptides of protein N of SARS-CoV Urbani for `KTFPPTEPKKDKKKK` .
Output: 0.2

Task: I would be grateful if you could share the reported Binding of serum 1a to looped/cyclic peptides of protein N of SARS-CoV Urbani for `KQYNVTQAFGRRGPE` .
Output: 0.0

Task: I would be grateful if you could share the reported Binding of serum 1a to looped/cyclic peptides of protein N of SARS-CoV Urbani for `KDNVILLNKHIDAYK` .
Output: 0.3

###

# Tested on: antibodies in sera from SARS patients (sera 1a, 1b, 2, 6, 37, 62, London, SARS-yellow, SARS-green)
# Type: binding, human
# Design: unit not given here
# Binding of serum 37 to linear peptides of protein X5 of SARS-CoV Urbani listing for each entry below
// response body must contain only the number

- ALIARCWYLHEGHQT: 0.7
- CLKILVRYNTRGNTY: 0.7
- LPFHRWHTMVQTCTP: 0.8
- CALGKVLPFHRWHTM: 0.8
- LIARCWYLHEGHQTA: 0.8

Task: I would be grateful if you could share the reported Binding of serum 37 to linear peptides of protein X5 of SARS-CoV Urbani for `TYSTAWLCALGKVLP` .
Output: 0.7

Task: I would be grateful if you could share the reported Binding of serum 37 to linear peptides of protein X5 of SARS-CoV Urbani for `VLPFHRWHTMVQTCT` .
Output: 0.7

Task: I would be grateful if you could share the reported Binding of serum 37 to linear peptides of protein X5 of SARS-CoV Urbani for `TPNVTINCQDPAGGA` .
Output: 0.8

###

# Tested on: recombinant human anti-SARS-CoV antibody 03-018
# Type: binding
# Design: unit not given here
measured.metric: Binding of antibody 03-018 to looped/cyclic peptides of the N protein of SARS-CoV Urbani
// response body must contain only the number

Worked cases, answers included:
* RRPQGLPNNTASWFT | 0.2
* TGPEASLPYGANKEG | 0.2
* LSPRWYFYYLGTGPE | 0.2

Task: I would be grateful if you could share the reported Binding of antibody 03-018 to looped/cyclic peptides of the N protein of SARS-CoV Urbani for `LLPAADMDDFSRQLQ` .
Output: 0.2

###

# Tested on: antibodies in sera from SARS patients (sera 1a, 1b, 2, 6, 37, 62, London, SARS-yellow, SARS-green)
# Assay type: binding, human
# Binding of serum London to linear peptides of protein X1 of SARS-CoV Urbani listing for each entry below
// response body must contain only the number

• GYFTEVYYQLESTQI = 0.3
• VVTEGDGISTPKLKE = 0.3
• ICNLLLLFVTIYSHL = 0.2
• LFVTIYSHLLLVAAG = 0.2
• VTEGDGISTPKLKED = 0.3
• CNLLLLFVTIYSHLL = 0.2
• LFMRFFTLGSITAQP = 0.3
• KNPLLYDANYFVCWH = 0.3
• TIVVTEGDGISTPKL = 0.3
• KDYVVVHGYFTEVYY = 0.2

Turning now to a further sequence:
Task: I would be grateful if you could share the reported Binding of serum London to linear peptides of protein X1 of SARS-CoV Urbani for `PFGWLVIGVAFLAVF` .
Output: 0.3

###

# System: antibodies in sera from SARS patients (sera 1a, 1b, 2, 6, 37, 62, London, SARS-yellow, SARS-green)
# Assay type: binding, human
# Set-up: unit not given here
measured.metric: Binding of serum 37 to linear peptides of protein X1 of SARS-CoV Urbani
// response body must contain only the number

Worked cases, answers included:
• QASLPFGWLVIGVAF = 0.6
• KCKSKNPLLYDANYF = 0.6
• HTIDGSSGVANPAMD = 0.7
• TIVVTEGDGISTPKL = 0.6
• VYYQLESTQITTDTG = 0.6

Task: I would be grateful if you could share the reported Binding of serum 37 to linear peptides of protein X1 of SARS-CoV Urbani for `LLVAAGMEAQFLYLY` .
Output: 0.6

Task: I would be grateful if you could share the reported Binding of serum 37 to linear peptides of protein X1 of SARS-CoV Urbani for `HATATIPLQASLPFG` .
Output: 0.8

Task: I would be grateful if you could share the reported Binding of serum 37 to linear peptides of protein X1 of SARS-CoV Urbani for `TIDGSSGVANPAMDP` .
Output: 0.6

Task: I would be grateful if you could share the reported Binding of serum 37 to linear peptides of protein X1 of SARS-CoV Urbani for `YFLQCINACRIIMRC` .
Output: 0.6

Task: I would be grateful if you could share the reported Binding of serum 37 to linear peptides of protein X1 of SARS-CoV Urbani for `ALNKRWQLALYKGFQ` .
Output: 0.6

Task: I would be grateful if you could share the reported Binding of serum 37 to linear peptides of protein X1 of SARS-CoV Urbani for `MEAQFLYLYALIYFL` .
Output: 0.5

Task: I would be grateful if you could share the reported Binding of serum 37 to linear peptides of protein X1 of SARS-CoV Urbani for `VQIHTIDGSSGVANP` .
Output: 0.7

Task: I would be grateful if you could share the reported Binding of serum 37 to linear peptides of protein X1 of SARS-CoV Urbani for `ATATIPLQASLPFGW` .
Output: 0.7

Task: I would be grateful if you could share the reported Binding of serum 37 to linear peptides of protein X1 of SARS-CoV Urbani for `ALYKGFQFICNLLLL` .
Output: 0.5

Task: I would be grateful if you could share the reported Binding of serum 37 to linear peptides of protein X1 of SARS-CoV Urbani for `DLFMRFFTLGSITAQ` .
Output: 0.6

Task: I would be grateful if you could share the reported Binding of serum 37 to linear peptides of protein X1 of SARS-CoV Urbani for `LPFGWLVIGVAFLAV` .
Output: 0.7

Task: I would be grateful if you could share the reported Binding of serum 37 to linear peptides of protein X1 of SARS-CoV Urbani for `LESTQITTDTGIENA` .
Output: 0.5

Task: I would be grateful if you could share the reported Binding of serum 37 to linear peptides of protein X1 of SARS-CoV Urbani for `CKSKNPLLYDANYFV` .
Output: 0.7

Task: I would be grateful if you could share the reported Binding of serum 37 to linear peptides of protein X1 of SARS-CoV Urbani for `VTIYSHLLLVAAGME` .
Output: 0.6

Task: I would be grateful if you could share the reported Binding of serum 37 to linear peptides of protein X1 of SARS-CoV Urbani for `IALNKRWQLALYKGF` .
Output: 0.7

Task: I would be grateful if you could share the reported Binding of serum 37 to linear peptides of protein X1 of SARS-CoV Urbani for `NLLLLFVTIYSHLLL` .
Output: 0.5

Task: I would be grateful if you could share the reported Binding of serum 37 to linear peptides of protein X1 of SARS-CoV Urbani for `KIIALNKRWQLALYK` .
Output: 0.8

###

# Tested on: antibodies in sera from SARS patients (sera 1a, 1b, 2, 6, 37, 62, London, SARS-yellow, SARS-green)
# Format: binding, human
# Binding of serum SARS-green to linear peptide (PEPSCAN-ELISA) listing for each entry below
// response body must contain only the number

Worked cases, answers included:
- FYAEGSRGGSQASSR: 0.4
- SSRSSSRSRGNSRNS: 0.3
- TQGNFGDQDLIRQGT: 0.6
- GGGETALALLLLDRL: 0.2
- LNQLESKVSGKGQQQ: 0.4
- LDRLNQLESKVSGKG: 0.8
- RGNSRNSTPGSSRGN: 0.2
- GQQQQGQTVTKKSAA: 0.1

Task: I would be grateful if you could share the reported Binding of serum SARS-green to linear peptide (PEPSCAN-ELISA) for `SKKPRQKRTATKQYN` .
Output: 0.1

Task: I would be grateful if you could share the reported Binding of serum SARS-green to linear peptide (PEPSCAN-ELISA) for `QASSRSSSRSRGNSR` .
Output: 0.2

###

# Tested on: antibodies in sera from SARS patients (sera 1a, 1b, 2, 6, 37, 62, London, SARS-yellow, SARS-green)
# Type: binding, human
# Design: unit not given here
measured.metric: Binding of serum 6 to linear peptides of protein X1 of SARS-CoV Urbani
// response body must contain only the number

- TEGDGISTPKLKEDY: 0.2
- GMEAQFLYLYALIYF: 0.5
- LVAAGMEAQFLYLYA: 0.4
- KDYVVVHGYFTEVYY: 0.4
- LLVAAGMEAQFLYLY: 0.5
- TIPLQASLPFGWLVI: 0.5
- FVTIYSHLLLVAAGM: 0.4
- VHGYFTEVYYQLEST: 0.4

Task: I would be grateful if you could share the reported Binding of serum 6 to linear peptides of protein X1 of SARS-CoV Urbani for `VQIHTIDGSSGVANP` .
Output: 0.6

Task: I would be grateful if you could share the reported Binding of serum 6 to linear peptides of protein X1 of SARS-CoV Urbani for `MEAQFLYLYALIYFL` .
Output: 0.4

Task: I would be grateful if you could share the reported Binding of serum 6 to linear peptides of protein X1 of SARS-CoV Urbani for `LLLFVTIYSHLLLVA` .
Output: 0.3

Task: I would be grateful if you could share the reported Binding of serum 6 to linear peptides of protein X1 of SARS-CoV Urbani for `VAFLAVFQSATKIIA` .
Output: 0.7

Task: I would be grateful if you could share the reported Binding of serum 6 to linear peptides of protein X1 of SARS-CoV Urbani for `ICNLLLLFVTIYSHL` .
Output: 0.4
